These data points were gathered from patent US20260364080A1.

Target: Myt1 kinase (CDK1 Thr14 phosphorylation in ACHN renal cell carcinoma cells) (Homo sapiens, UniProt Q99640)
Construct: pCDK1 Thr14 AlphaLISA read-out
Sequence (Q99640 whole entry): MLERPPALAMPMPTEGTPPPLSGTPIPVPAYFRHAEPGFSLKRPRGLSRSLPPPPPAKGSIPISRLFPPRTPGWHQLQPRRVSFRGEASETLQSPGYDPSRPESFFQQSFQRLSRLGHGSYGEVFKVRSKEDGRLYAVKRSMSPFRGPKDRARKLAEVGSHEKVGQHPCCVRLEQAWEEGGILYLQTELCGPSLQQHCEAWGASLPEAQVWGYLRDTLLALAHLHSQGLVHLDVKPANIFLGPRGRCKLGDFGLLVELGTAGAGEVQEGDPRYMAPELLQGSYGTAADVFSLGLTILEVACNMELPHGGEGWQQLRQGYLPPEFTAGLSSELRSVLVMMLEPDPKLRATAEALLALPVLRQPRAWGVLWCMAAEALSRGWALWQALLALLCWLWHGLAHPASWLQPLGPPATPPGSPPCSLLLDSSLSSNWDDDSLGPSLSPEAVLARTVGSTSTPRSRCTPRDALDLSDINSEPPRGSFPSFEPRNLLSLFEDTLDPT
Test: AlphaLISA assay, Myt1 kinase target engagement (phospho-CDK1 Thr14) in ACHN cells
Conditions: ACHN cells (marked *); 4 h treatment
pEC50: −log10 of the molar value.
observed.property: pEC50

Entry C=CCn1c(=O)c2cnc(Nc3ccc4c(ccn4C)c3)nc2n1-c1cccc(OC2CCN(C)CC2)n1 , pEC50 reported as 6.30 to 6.70

Entry C=CCn1c(=O)c2cnc(Nc3ccc4cn(C)nc4c3)nc2n1-c1cccc(OC2CCN(C)CC2)n1 , pEC50 reported as 6.30 to 6.70

Entry C=CCn1c(=O)c2cnc(Nc3ccc4c(cnn4C)c3)nc2n1-c1ccnc(OC2CCN(C)CC2)n1 , pEC50 reported as 6.30 to 6.70

Entry C=CCn1c(=O)c2cnc(Nc3ccc4c(cnn4C)c3)nc2n1-c1cccc(NC2CCN(C)CC2)n1 , pEC50 reported as < 6.00

Entry C=CCn1c(=O)c2cnc(Nc3ccc4c(cnn4C)c3)nc2n1-c1cccc(OC2CCCN(C)CC2)n1 (single isomer, unassigned) [Compound 374] , pEC50 reported as 6.00 to 6.30

Entry C=CCn1c(=O)c2cnc(Nc3ccc4c(cnn4C4CC4)c3)nc2n1-c1cccc(OC2CCN(C)CC2)n1 , pEC50 reported as > 6.70

Entry C=CCn1c(=O)c2cnc(Nc3ccc4c(cnn4CCC)c3)nc2n1-c1cccc(OC2CCNCC2)n1 , pEC50 reported as > 6.70

Entry C=CCn1c(=O)c2cnc(Nc3ccc4c(ccn4C(C)=O)c3)nc2n1-c1cccc(OC2CCNCC2)n1 , pEC50 reported as < 6.00

Entry C=CCn1c(=O)c2cnc(Nc3ccc4c(cnn4CCCF)c3)nc2n1-c1cccc(OC2CCNCC2)n1 , pEC50 reported as 6.00 to 6.30

Entry C=CCn1c(=O)c2cnc(Nc3ccc4c(cnn4CCC)c3)nc2n1-c1cccc(OC2CCN(C)CC2)n1 , pEC50 reported as > 6.70

Entry C=CCn1c(=O)c2cnc(Nc3ccc(F)c(C)c3)nc2n1-c1cccc(OC2CCN(C)CC2)n1 , pEC50 reported as 6.30 to 6.70

Entry [2H]C([2H])([2H])N1CCC(Oc2nccc(-n3c4nc(Nc5ccc6c(cnn6C)c5)ncc4c(=O)n3CC=C)n2)CC1 , pEC50 reported as 6.00 to 6.30

Entry C=CCn1c(=O)c2cnc(Nc3cnc4c(cnn4C(C)C)c3)nc2n1-c1cccc(OC2CCN(C)CC2)n1 , pEC50 reported as > 6.70

Entry C=CCn1c(=O)c2cnc(Nc3ccc4ccncc4c3)nc2n1-c1cccc(OC2CCN(C)CC2)n1 , pEC50 reported as 6.30 to 6.70

Entry C=CCn1c(=O)c2cnc(Nc3ccc4c(c3)ncn4C(C)C)nc2n1-c1cccc(OC2CCN(C)CC2)n1 , pEC50 reported as 6.30 to 6.70

Entry C=CCn1c(=O)c2cnc(Nc3ccc(OCCF)cc3)nc2n1-c1ccnc(OC2CCN(C)CC2)n1 , pEC50 reported as > 6.70

Entry C=CCn1c(=O)c2cnc(Nc3ccc4nn(C(C)(C)C)cc4c3)nc2n1-c1cccc(OC2CCN(C)CC2)n1 , pEC50 reported as > 6.70

Entry C=CCn1c(=O)c2cnc(Nc3ccc4c(ccn4C(C)=O)c3)nc2n1-c1cccc(OC2CCN(C)CC2)n1 , pEC50 reported as > 6.70

Entry C=CCn1c(=O)c2cnc(Nc3ccc4[nH]nc(C)c4c3)nc2n1-c1cccc(OC2CCN(C)CC2)n1 , pEC50 reported as 6.30 to 6.70

Entry [2H]C([2H])([2H])N1CCC(Oc2cccc(-n3c4nc(Nc5ccc6c(cnn6C)c5)ncc4c(=O)n3CC=C)n2)CC1 , pEC50 reported as > 6.70

Entry C=CCn1c(=O)c2cnc(Nc3ccc(OCCF)nc3)nc2n1-c1cccc(OC2CCN(C)CC2)n1 , pEC50 reported as > 6.70

Entry C=CCn1c(=O)c2cnc(Nc3ccc4c(cnn4C(C)C)c3)nc2n1-c1ccnc(OC2CCN(C)CC2)n1 , pEC50 reported as > 6.70

* * *

Consider the following molecules; for each one, report its pIC50.
Target: Myt1 kinase (recombinant PMYT-1) (Homo sapiens, UniProt Q99640)
Construct: full length PMYT-1 was expressed by baculovirus in insect cells; purchased Invitrogen A30984; host or cells: insect cells (baculovirus)
Sequence (Q99640 whole entry): as above
Test: Myt1 kinase binding assay (LanthaScreen Eu Kinase Binding Assay)
Conditions: 3 nM tracer 178, 2.5 nM PMYT-1, 1 nM Eu-labeled antibody; read-out: Myt1 kinase Binding IC50
pIC50: −log10 of the molar value.

Entry CN1CCC(Oc2cccc(-n3c4nc(Nc5ccc6c(ccn6C)c5)ncc4c(=O)n3C)n2)CC1 [Compound 360] , pIC50 reported as 7.00 to 7.70

Entry C=CCn1c(=O)c2cnc(Nc3ccc(Cl)cc3)nc2n1-c1cccc(N(C)[C@@H]2CCCN(C)C2)n1 [Compound 163] , pIC50 reported as < 6.30

Entry C=CCn1c(=O)c2cnc(Nc3cccc(C)c3)nc2n1-c1cccc(NC2CCNCC2)n1 [Compound 126] , pIC50 reported as < 6.30

Entry C=CCn1c(=O)c2cnc(Nc3ccc4nn(C)cc4c3)nc2n1-c1cccc(OC2CCN(C)CC2)n1 [Compound 273] , pIC50 reported as > 7.70

* * *

Target: Myt1 kinase (recombinant PMYT-1) (Homo sapiens, UniProt Q99640)
Construct: full length PMYT-1 was expressed by baculovirus in insect cells; purchased Invitrogen A30984; host or cells: insect cells (baculovirus)
Test: Myt1 kinase binding assay (LanthaScreen Eu Kinase Binding Assay)
Settings: 3 nM tracer 178, 2.5 nM PMYT-1, 1 nM Eu-labeled antibody; read-out: Myt1 kinase Binding IC50
pIC50: −log10 of the molar value.
observed.property: pIC50

Per the reported Myt1 kinase (recombinant PMYT-1) (Homo sapiens, UniProt Q99640) data, C=CCn1c(=O)c2cnc(Nc3ccc4c(c3)c(C)nn4C)nc2n1-c1cccc(OC2CCNCC2)n1 has pIC50 of 7.00 to 7.70

Per the reported Myt1 kinase (recombinant PMYT-1) (Homo sapiens, UniProt Q99640) data, C=CCn1c(=O)c2cnc(Nc3cccc(C)c3)nc2n1-c1cccc(NC2CCN(C)CC2)n1 has pIC50 of 6.30 to 7.00

Per the reported Myt1 kinase (recombinant PMYT-1) (Homo sapiens, UniProt Q99640) data, CCn1c(=O)c2cnc(Nc3ccc(-c4cnn(C)c4)cc3)nc2n1-c1cccc(OC2CCNCC2)n1 has pIC50 of > 7.70

Per the reported Myt1 kinase (recombinant PMYT-1) (Homo sapiens, UniProt Q99640) data, C=CCn1c(=O)c2cnc(Nc3ccc4c(cnn4C)c3)nc2n1-c1cccc(OC2CCNC(C)(C)C2)n1 (stereo not drawn) has pIC50 of 6.30 to 7.00

Per the reported Myt1 kinase (recombinant PMYT-1) (Homo sapiens, UniProt Q99640) data, C=CCn1c(=O)c2cnc(Nc3cncc(F)c3)nc2n1-c1cccc(OC2CCN(C)CC2)n1 has pIC50 of 7.00 to 7.70

Per the reported Myt1 kinase (recombinant PMYT-1) (Homo sapiens, UniProt Q99640) data, C=CCn1c(=O)c2cnc(Nc3ccc4ccoc4c3)nc2n1-c1cccc(OC2CCN(C)CC2)n1 [Compound 195] has pIC50 of 6.30 to 7.00

Per the reported Myt1 kinase (recombinant PMYT-1) (Homo sapiens, UniProt Q99640) data, C=CCn1c(=O)c2cnc(Nc3ccc4c(cnn4C)c3)nc2n1-c1cccc(O[C@@H]2CCN[C@H](C)C2)n1 (stereo in doubt) has pIC50 of 6.30 to 7.00

Per the reported Myt1 kinase (recombinant PMYT-1) (Homo sapiens, UniProt Q99640) data, C=CCn1c(=O)c2cnc(Nc3cc(C)cc(F)c3)nc2n1-c1cccc(NC2CCN(C)CC2)n1 has pIC50 of 6.30 to 7.00

Per the reported Myt1 kinase (recombinant PMYT-1) (Homo sapiens, UniProt Q99640) data, C=CCn1c(=O)c2cnc(Nc3ccc(Cl)cc3)nc2n1-c1cccc(O[C@H]2CCCN(C)C2)n1 has pIC50 of 6.30 to 7.00

Per the reported Myt1 kinase (recombinant PMYT-1) (Homo sapiens, UniProt Q99640) data, C=CCn1c(=O)c2cnc(Nc3ccc4nn(CC)cc4c3)nc2n1-c1cccc(OC2CCNCC2)n1 has pIC50 of 7.00 to 7.70

Per the reported Myt1 kinase (recombinant PMYT-1) (Homo sapiens, UniProt Q99640) data, CCn1c(=O)c2cnc(Nc3ccc(-c4cnn(C)c4)cc3)nc2n1-c1cccc(OC2CCN(C)CC2)n1 has pIC50 of 7.00 to 7.70

Per the reported Myt1 kinase (recombinant PMYT-1) (Homo sapiens, UniProt Q99640) data, CN1CCC(Oc2cccc(-n3c4nc(Nc5ccc6c(cnn6C)c5)ncc4c(=O)n3C)n2)CC1 has pIC50 of 7.00 to 7.70

Per the reported Myt1 kinase (recombinant PMYT-1) (Homo sapiens, UniProt Q99640) data, C=CCn1c(=O)c2cnc(Nc3cccc(-n4ccnc4)c3)nc2n1-c1cccc(OC2CCN(C)CC2)n1 has pIC50 of 7.00 to 7.70

Per the reported Myt1 kinase (recombinant PMYT-1) (Homo sapiens, UniProt Q99640) data, C=CCn1c(=O)c2cnc(Nc3ccc4c(cnn4C)c3)nc2n1-c1cccc(NC2CCNCC2)n1 has pIC50 of 6.30 to 7.00

Per the reported Myt1 kinase (recombinant PMYT-1) (Homo sapiens, UniProt Q99640) data, C=CCn1c(=O)c2cnc(Nc3ccc(Br)cc3)nc2n1-c1cccc(OC2CCN(C)CC2)n1 has pIC50 of > 7.70
